# Tested on: HepG2-ACTB-RAB5A
# Experiment notes: phenotypically active (imaging signature differs from DMSO and reproducible) at any of 0.3-9 uM (binary (1 = active, 0 = inactive)); higher = active
# Conditions used: treatment time: 24 h
A correct response names exactly one class from active, inactive

Problem: Record lookup: outcome of this test for CC1=C(/C=C/C(C)=C\C=C\C(C)=C\C(=O)O)C(C)(C)CCC1 [tretinoin] ?
Solution: active

Problem: Record lookup: outcome of this test for C[C@@H]1C[C@H]2[C@@H]3C[C@H](F)C4=CC(=O)C=C[C@]4(C)[C@@]3(F)[C@@H](O)C[C@]2(C)[C@@]1(O)C(=O)COC(=O)C(C)(C)C [flumethasone pivalate] ?
Solution: inactive

Problem: Record lookup: outcome of this test for CC(C)C1=CC2=CCC3[C@](C)(CCC[C@]3(C)C(=O)O)C2CC1 (some centres undefined) [Abietic Acid] ?
Solution: inactive

Problem: Record lookup: outcome of this test for O=c1c(-c2ccc(O)cc2)coc2cc(O)cc(O)c12 [Genistein] ?
Solution: inactive

* * *

# System: HepG2-TP53BP1-CLTA
# Experiment notes: lowest phenotypically active concentration; higher = less potent
# Conditions used: treatment time: 24 h
Recorded metric: lowest phenotypically active concentration (µM)
Reply numerically in µM, unit not repeated.

Problem: Lab note: need lowest phenotypically active concentration for CNC1CCC2(C)C(=CCC3C2CCC24CN(C)C(C)C2CCC34)C1 (configuration not stated) on HepG2-TP53BP1-CLTA, anyone have it?
Solution: 1

Problem: Lab note: need lowest phenotypically active concentration for "O=C(Nc1ccc(-c2ccnc(Nc3ccc(N4CCOCC4)cc3)n2)cc1)[C@@H]1CCCN1" on HepG2-TP53BP1-CLTA, anyone have it?
Solution: 9

Problem: Lab note: need lowest phenotypically active concentration for "CN(C)c1ccc(C(=O)NCCCCCCC(=O)NO)cc1" on HepG2-TP53BP1-CLTA, anyone have it?
Solution: 1

Problem: Lab note: need lowest phenotypically active concentration for "Cc1cc2c(F)c(Oc3ncnn4cc(OC[C@@H](C)O)c(C)c34)ccc2[nH]1" on HepG2-TP53BP1-CLTA, anyone have it?
Solution: 9

* * *

# System: A549-CANX-COX4
# Experiment notes: lowest phenotypically active concentration; higher = less potent
# Conditions used: treatment time: 24 h
Recorded metric: lowest phenotypically active concentration (µM)
Reply numerically in µM, unit not repeated.

Problem: Quick one: lowest phenotypically active concentration for "CCN(CC)CCNc1ccc(CO)c2sc3ccccc3c(=O)c12" ?
Solution: 9

Problem: Quick one: lowest phenotypically active concentration for "COc1cc2ncn(-c3cc(OCc4ccccc4C(F)(F)F)c(C(N)=O)s3)c2cc1OC" ?
Solution: 1

Problem: Quick one: lowest phenotypically active concentration for "Cn1cc(-c2[nH]c3cc(NC(=O)[C@H](N)C4CCCCC4)cc4c3c2C=NNC4=O)cn1" ?
Solution: 9

Problem: Quick one: lowest phenotypically active concentration for "COc1cc2c(cc1O)CC[C@@H]1[C@@H]2CC[C@]2(C)[C@@H](O)CC[C@@H]12" ?
Solution: 1

Problem: Quick one: lowest phenotypically active concentration for "COc1ccc(-c2cc(=O)c3c(O)cc(O)cc3o2)cc1O" ?
Solution: 9

Problem: Quick one: lowest phenotypically active concentration for "O=C(Nc1ccccc1)c1cc([N+](=O)[O-])ccc1Cl" ?
Solution: 9

* * *

# Tested on: HepG2-ACTB-RAB5A
# Experiment notes: lowest phenotypically active concentration; higher = less potent
# Conditions used: treatment time: 24 h
Where a name gives a salt, the structure may show the parent alone.
Hi there, I'd appreciate the recorded lowest phenotypically active concentration for every entry that follows.

Problem: Quick one: lowest phenotypically active concentration for "Cc1ccc(NC(=O)c2cccc(C(C)(C)C#N)c2)cc1Nc1ccc2ncn(C)c(=O)c2c1" ?
Solution: ≤ 0.3 µM

Problem: Quick one: lowest phenotypically active concentration for "CO[C@@H]1[C@H](N(C)C(=O)c2ccccc2)C[C@H]2O[C@]1(C)n1c3ccccc3c3c4c(c5c6ccccc6n2c5c31)C(=O)NC4" ?
Solution: ≤ 0.3 µM

Problem: Quick one: lowest phenotypically active concentration for CN1CCN(C(=O)CN[C@H]2C[C@@H]2c2ccc(OCc3ccccc3)cc2)CC1 [RN 1 dihydrochloride] ?
Solution: 9 µM

Problem: Quick one: lowest phenotypically active concentration for "Cc1c(NC(=O)OC[C@@H]2COCCN2)cn2ncnc(Nc3ccc4c(cnn4Cc4cccc(F)c4)c3)c12" ?
Solution: 3 µM

Problem: Quick one: lowest phenotypically active concentration for "CNC(=O)c1ccccc1Sc1ccc2c(/C=C/c3ccccn3)n[nH]c2c1" ?
Solution: 3 µM

Problem: Quick one: lowest phenotypically active concentration for "Cc1cc(Nc2ncc3c(n2)N(C)C(=O)N(c2cc(NC(=O)c4cccc(C(F)(F)F)c4)ccc2C)C3)n(C)n1" ?
Solution: ≤ 0.3 µM

Problem: Quick one: lowest phenotypically active concentration for "CC/C(=C(/c1ccccc1)c1ccc(OCCN(C)C)cc1)c1ccccc1" ?
Solution: 9 µM

Problem: Quick one: lowest phenotypically active concentration for "COc1cc2c(Nc3ccc(Br)cc3F)ncnc2cc1OCC1CCN(C)CC1" ?
Solution: 3 µM

* * *

# Tested on: WPMY1-TP53BP1-CLTA
# Experiment notes: phenotypically active (imaging signature differs from DMSO and reproducible) at any of 0.3-9 uM (binary (1 = active, 0 = inactive)); higher = active
# Conditions used: treatment time: 24 h
Structures can show the parent of a compound that is named as a salt.
A correct response names exactly one class from active, inactive

Problem: Record lookup: outcome of this test for CC(C)C(=O)Nc1ccc([N+](=O)[O-])c(C(F)(F)F)c1 [flutamide] ?
Solution: inactive

Problem: Record lookup: outcome of this test for "Nc1nc(S)c2[nH]cnc2n1" ?
Solution: active

Problem: Record lookup: outcome of this test for COC(=O)[C@H]1[C@H]2C[C@H]3c4[nH]c5ccccc5c4CCN3C[C@H]2CC[C@@H]1O [Rauwolscine hydrochloride] ?
Solution: inactive

Problem: Record lookup: outcome of this test for CN(C)CCOC(c1ccccc1)c1ccccc1 [diphenhydramine] ?
Solution: active

Problem: Record lookup: outcome of this test for "CCOC(=O)N1CCC(=C2c3ccc(Cl)cc3CCc3cccnc32)CC1" ?
Solution: inactive

Problem: Record lookup: outcome of this test for "CCCOc1ccc(CCc2nc3cc(-c4c(C)noc4C)ccc3n2CCN2CCOCC2)cc1" ?
Solution: inactive

Problem: Record lookup: outcome of this test for "O=C(Nc1cccnc1)c1cc(-c2ccnc(F)c2)ccc1OCc1ccccc1" ?
Solution: inactive

Problem: Record lookup: outcome of this test for "CC(=C/[C@@H](C)C(=O)c1ccc(N(C)C)cc1)/C=C/C(=O)NO" ?
Solution: active

Problem: Record lookup: outcome of this test for "C(=C/c1ccccc1)/CN1CCN(C(c2ccccc2)c2ccccc2)CC1" ?
Solution: inactive

* * *

# Tested on: WPMY1-CANX-COX4
# Experiment notes: phenotypically active (imaging signature differs from DMSO and reproducible) at any of 0.3-9 uM (binary (1 = active, 0 = inactive)); higher = active
# Conditions used: treatment time: 24 h
Recorded metric: phenotypically active

Problem: Lab note: need phenotypically active for "CC(C)C[C@H](NC(=O)OCC1c2ccccc2-c2ccccc21)C(=O)O" on WPMY1-CANX-COX4, anyone have it?
Solution: 0 (inactive)

Problem: Lab note: need phenotypically active for COCCOC(=O)C1=C(C)NC(C)=C(C(=O)OC(C)C)C1c1cccc([N+](=O)[O-])c1 (stereo not given) [nimodipine] on WPMY1-CANX-COX4, anyone have it?
Solution: 0 (inactive)

Problem: Lab note: need phenotypically active for "CN1CCN(c2ccc(-c3cccc(CN4CCOCC4)c3)cc2NC(=O)c2c[nH]c(=O)cc2C(F)(F)F)CC1" on WPMY1-CANX-COX4, anyone have it?
Solution: 1 (active)

Problem: Lab note: need phenotypically active for Cc1ccc(-c2cc(C(F)(F)F)nn2-c2ccc(S(N)(=O)=O)cc2)cc1 [celecoxib] on WPMY1-CANX-COX4, anyone have it?
Solution: 0 (inactive)

Problem: Lab note: need phenotypically active for "Cc1ccccc1Sc1ccc(/C=C2/SC(=S)NC2=O)cc1[N+](=O)[O-]" on WPMY1-CANX-COX4, anyone have it?
Solution: 0 (inactive)

* * *

# System: WPMY1-GM130-SQSTM1
# Experiment notes: phenotypically active (imaging signature differs from DMSO and reproducible) at any of 0.3-9 uM (binary (1 = active, 0 = inactive)); higher = active
# Conditions used: treatment time: 24 h
A correct response names exactly one class from 1.0 = active, 0.0 = inactive

Problem: Record lookup: outcome of this test for CC(C)C(=O)Nc1ccc([N+](=O)[O-])c(C(F)(F)F)c1 [flutamide] ?
Solution: 1.0

Problem: Record lookup: outcome of this test for "O=C(/C=C/c1ccc2ccccc2n1)c1ccncc1" ?
Solution: 1.0

Problem: Record lookup: outcome of this test for "COc1ccc(-c2noc(CSc3nnc(C)n3-c3ccc(OC)cc3)n2)cc1" ?
Solution: 0.0

Problem: Record lookup: outcome of this test for "O=C1c2ccccc2C(Cc2ccncc2)(Cc2ccncc2)c2ccccc21" ?
Solution: 0.0

Problem: Record lookup: outcome of this test for "CCOC(=O)C1=C(C)NC(=S)N[C@H]1c1cccc(O)c1" ?
Solution: 0.0

Problem: Record lookup: outcome of this test for COc1ccc([C@@H]2CNC(=O)C2)cc1OC1CCCC1 [(R)-(-)-Rolipram] ?
Solution: 0.0

Problem: Record lookup: outcome of this test for "CNC(=C[N+](=O)[O-])NCCSCc1ccc(CN(C)C)o1" ?
Solution: 0.0

Problem: Record lookup: outcome of this test for "O=C1Cc2c([nH]c3ccc(Br)cc23)-c2ccccc2N1" ?
Solution: 1.0

Problem: Record lookup: outcome of this test for "O=C1/C(=C\c2ccncc2)CCC/C1=C\c1ccncc1" ?
Solution: 1.0

Problem: Record lookup: outcome of this test for "O=S(=O)(c1ccccc1)N(CC(F)(F)F)c1ccc(C(O)(C(F)(F)F)C(F)(F)F)cc1" ?
Solution: 0.0
